Tested on: Plasmodium falciparum Sir2 (PF13_0152, Sir2A)
protocol: pfSir2 binders on small-molecule microarrays, primary screen, biochemical, small-molecule microarray, 635 nm fluorescence (AID 1098);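 note: score merges spot fluorescence intensity with its signal-to-noise ratio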
measurement_context: small-molecule microarray binding, fluorescence 635 nm; higher = more signal
reported_metric: composite z-score
// return a plain number; no unit text

Known value: Plasmodium falciparum Sir2 (PF13_0152, Sir2A) composite z-score of the compound `C=CC[C@@H]1C=C[C@H](ON=C2C[C@@H](O)[C@@H](O)[C@@H]3[C@@H]4C(=O)N(CC)C(=O)[C@@H]4CC[C@@H]23)[C@@H](CO)O1` equals -0.487

Known value: Plasmodium falciparum Sir2 (PF13_0152, Sir2A) composite z-score of the compound `COc1ccc(O[C@H]2C=C[C@@H](c3ccccc3)O[C@@H]2CO)cc1` equals 0.281

Known value: Plasmodium falciparum Sir2 (PF13_0152, Sir2A) composite z-score of the compound `O=C1C2=CC[C@H]3C(=O)N(C[C@@H]4CCCO4)C(=O)[C@H]3[C@H]2[C@H](O)[C@@H]2O[C@H]12` equals 1.22

Known value: Plasmodium falciparum Sir2 (PF13_0152, Sir2A) composite z-score of the compound `CC(CCC(=O)OC[C@H]1O[C@H](C#Cc2ccccc2)C=C[C@@H]1Oc1ccc(C)cc1)=NO[C@@H](C)c1cc(-c2c(C)cc(C)cc2C)no1` equals 0.199

Known value: Plasmodium falciparum Sir2 (PF13_0152, Sir2A) composite z-score of the compound `COc1cccc([C@H]2Oc3ccc(OC)cc3C(=NOCC[C@@H]3C=C[C@H](OC(C)=O)[C@@H](COC(C)=O)O3)[C@@H]2O)c1` equals 1.21

Known value: Plasmodium falciparum Sir2 (PF13_0152, Sir2A) composite z-score of the compound CC(CCC(=O)OC[C@H]1O[C@H](C#Cc2ccccc2)C=C[C@@H]1Oc1ccc(C)cc1)=NOC(C)CN1CCCCc2nc(C)c(C)cc21 (some centres not stated) equals 0.508

Known value: Plasmodium falciparum Sir2 (PF13_0152, Sir2A) composite z-score of the compound CO[C@@H](C(C)C)[C@@H](C)C1OC(=O)CC1O (some centres not stated) equals -0.595
